For each record, write down the corresponding normalized growth.
- assay_protocol: chemical genetic growth profiling, strain panel (AID 1159580);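 also: tested at 20 µM; growth read once vehicle control cultures reached saturation at 30 °C; 1 = growth at the plate median or of vehicle wells; lower values mean less growth of the strain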
- condition_parameters: S. cerevisiae deletion strains, growth OD, locus YDR502C, strain sam2, stronger effect = lower value
The campaign covered roughly 5,500 compounds. About 2,000 (36%) were called active. About 18% were inconclusive and are not listed. The list shows a part of the results.
Numbers only.

// known answers, use as guide
1. CC(=O)Oc1c(Cl)c(C)c2c(c1Cl)OC(=O)c1c(C)c(Cl)c(OC(C)=O)c(Cl)c1O2    0.878
2. C=C1C[C@]23C[C@@]1(O)CC[C@H]2[C@@]12C=C[C@H](O)[C@@](C)(C(=O)O1)[C@H]2[C@@H]3C(=O)O    1.03
3. NCC(=O)c1ccccc1    0.988
4. C[n+]1ccccc1/C=N/O    1
5. COC(=O)c1c(OC)cc2c(c1C)Oc1c(Cl)c(O)c(Cl)c(C)c1C(=O)O2    0.919
6. NCC(N)C(=O)c1ccccc1 (stereo unspecified)    0.988
7. COC(=O)c1c(C)c2c(c(C)c1OC)OC(=O)c1c(C)c(Cl)c(OC)c(Cl)c1O2    1.03
8. CCCSc1ccc2nc(NC(=O)OC)[nH]c2c1    0.966
9. CC(CCc1ccccc1)NCC(O)c1ccc(O)c(C(N)=O)c1 (stereo unspecified)    1.01
10. CC(C)(C)NCC(O)c1ccc(O)c(CO)c1 (stereo unspecified)    1.02

Please find the next compound below.
-- ask Give its normalized growth value. Item: `CCCOc1ccc2nc(NC(=O)OC)[nH]c2c1`
-- reply 0.983
